test system: R275C/beta2Delta; assay: modulators of BK channel variants, profiling panel, selectivity assay, cell-based, U2OS BacMam, thallium flux, beta subunits (AID 1259406); settings: at 30 µM;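 note: initial slope of Thallos dye fluorescence rise after thallium is added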
// boundary case: log fold change Tl+ flux equal to 0.01 maps to Not met; strictly smaller maps to Met

{"Compound": "Cc1nnc2n1-c1ccc(Cl)cc1C(c1ccccc1)=NC2", "Label value": "Not met"}
{"Compound": "O=C(O)C(Cl)Cl", "Label value": "Met"}
{"Compound": "CN1C(=O)CN=C(c2ccccc2)c2cc([N+](=O)[O-])ccc21", "Label value": "Not met"}
{"Compound": "CC(O)(CS(=O)(=O)c1ccc(F)cc1)C(=O)Nc1ccc(C#N)c(C(F)(F)F)c1 (stereo not drawn)", "Label value": "Not met"}
{"Compound": "C=CCN1CC[C@]23c4c5ccc(O)c4O[C@H]2C(=O)CC[C@@]3(O)[C@H]1C5", "Label value": "Not met"}
{"Compound": "C[C@]12CCC(=O)C=C1CC[C@@H]1[C@@H]2CC[C@@]2(C)[C@H]1CC[C@]2(C)O", "Label value": "Not met"}
{"Compound": "CCOC(=O)c1cncn1[C@H](C)c1ccccc1", "Label value": "Not met"}
{"Compound": "C[C@]12CC[C@H]3[C@@H](CCC4=CC(=O)CC[C@@H]43)[C@@H]1CC[C@@H]2O", "Label value": "Met"}
{"Compound": "CN1C(=O)COc2c(C(=O)NC3CN4CCC3CC4)cc(Cl)cc21 (stereo not drawn)", "Label value": "Met"}
{"Compound": "CC[C@]1(O)CC[C@H]2[C@@H]3CCC4=CCCC[C@@H]4[C@H]3CC[C@@]21C", "Label value": "Not met"}
{"Compound": "O=c1[nH]c(=S)[nH]c(O)c1C=C1C=CC=N1", "Label value": "Not met"}
{"Compound": "CC(C)N(CCC(C(N)=O)(c1ccccc1)c1ccccn1)C(C)C (stereo not drawn)", "Label value": "Met"}
{"Compound": "C[C@]12CC[C@H](O)CC1=CC[C@@H]1[C@@H]2CC[C@@]2(C)[C@H]1CC[C@]2(C)O", "Label value": "Met"}
{"Compound": "CC[C@@H](C(N)=O)N1CCCC1=O", "Label value": "Met"}
{"Compound": "CC(C)[C@]12O[C@H]1[C@@H]1O[C@]13[C@]1(O[C@H]1C[C@H]1C4=C(CC[C@@]13C)C(=O)OC4)[C@@H]2O", "Label value": "Not met"}
{"Compound": "C[N+]1(C)CCN(c2ccccc2)CC1", "Label value": "Met"}
{"Compound": "Cc1ncc2n1-c1ccc(Cl)cc1C(c1ccccc1F)=NC2", "Label value": "Met"}
{"Compound": "c1ccc2c3c([nH]c2c1)CNCC3", "Label value": "Met"}

====

molecular target: Mitogen-activated protein kinase 7 (Homo sapiens); test: ERK5 transactivation activators in reporter cells, primary screen, cell-based, HTS (AID 1508626); conditions: HeLa Gal4-ERK5 transactivation, 18 h, at 5 µM;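 note: luciferase driven by Gal4-ERK5 fusion binding five Gal4 sites before minimal TATA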
Activity calls are given as the source filed them.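 Rule for the calls: active = luciferase signal above three times the same-plate solvent-only control wells; inactive = the rest.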
Possible outcomes: active, inactive

{"Compound": "CC(=O)[O-].CC(=O)[O-].[Cd+2]", "Label value": "inactive"}
{"Compound": "Clc1ccc(CSC(Cn2ccnc2)c2ccc(Cl)cc2Cl)cc1 (stereo unspecified)", "Label value": "inactive"}
{"Compound": "COc1ccc(C[C@H]2NC[C@H](O)[C@H]2OC(C)=O)cc1", "Label value": "inactive"}
{"Compound": "O=C1C=CC(=O)c2ccccc21", "Label value": "active"}
{"Compound": "CCOC(=O)C1C(C=C(C)C)C1(C)C (stereo unspecified)", "Label value": "inactive"}
{"Compound": "CCC(C)C(=O)O[C@@H]1C[C@@]2(C)[C@H](c3ccoc3)OC(=O)CC23OC2(C)O[C@]14[C@]1(C)[C@@H](CC(=O)OC)C5(C)CC1(O)[C@](O)(C5OC(=O)C1(C)OC1C)[C@@H](OC(C)=O)[C@]34O2 (stereo partly specified)", "Label value": "inactive"}
{"Compound": "CCCCCCCCCCCCCCCC[N+](C)(C)C", "Label value": "inactive"}
{"Compound": "C[C@H]1C[C@@H](O)[C@]2(O)[C@@]13CC(=O)OC[C@@]2(C)[C@](C)(O)C(=O)C3", "Label value": "inactive"}
{"Compound": "CC[C@@]1(C2O[C@@H](C3O[C@@](O)(CC)[C@H](C)C[C@@H]3C)C[C@@H]2C)CC[C@H]([C@]2(C)CCC3(C[C@H](O)[C@@H](C)[C@@H]([C@H](C)[C@@H](OC)[C@H](C)C(=O)O)O3)O2)O1 (stereo partly specified)", "Label value": "inactive"}
{"Compound": "C=C(C)c1cc2cc(C(C)=O)c(O)cc2o1", "Label value": "inactive"}
{"Compound": "C[C@@H]1[C@H](O)[C@@H](C)/C=C/C=C/CC/C=C/C=C/C=C/C=C/C(O[C@H]2O[C@H](C)[C@@H](O)[C@H](N)[C@@H]2O)CC2O[C@](O)(CC(O)C(O)CCC(O)CC(O)CC(O)CC(=O)O[C@H]1C)CC(O)C2C(=O)O (stereo partly specified)", "Label value": "inactive"}
{"Compound": "CC(C)c1ccc2c(c1O)CC[C@H]1C3=C(CC[C@]21C)C(=O)OC3", "Label value": "inactive"}
{"Compound": "C[C@]12CC[C@H](O)CC1=CC[C@@H]1[C@@H]2CC[C@]2(C)C(=O)CC[C@@H]12", "Label value": "inactive"}
{"Compound": "CC[C@@H](CO)NC(=O)[C@@H]1C=C2c3cccc4[nH]cc(c34)C[C@H]2N(C)C1", "Label value": "inactive"}
{"Compound": "O=C1NC(=O)C(=O)C(=O)N1", "Label value": "inactive"}
{"Compound": "CCC1(c2ccc(N)cc2)CCC(=O)NC1=O (stereo unspecified)", "Label value": "inactive"}
{"Compound": "O=C1C=C2C=C[C@@H]3C[C@@]2(O1)[C@H]1CCCCN31", "Label value": "inactive"}
{"Compound": "Oc1ccc(Cl)cc1", "Label value": "inactive"}
{"Compound": "CC[C@@]1(O)C[C@H](O[C@H]2C[C@H](N(C)C)[C@H](O)[C@H](C)O2)c2c(cc3c(c2O)C(=O)c2c(O)ccc(O)c2C3=O)[C@H]1C(=O)OC", "Label value": "inactive"}
{"Compound": "COC1=C[C@]23CCCN2CCc2cc4c(cc2[C@@H]3[C@@H]1O)OCO4", "Label value": "inactive"}
{"Compound": "COc1cc([C@@H]2c3cc4c(c(O)c3C[C@H]3COC(=O)[C@@H]32)OCO4)cc(OC)c1OC", "Label value": "inactive"}
{"Compound": "O=P1(N(CCCl)CCCl)NCCCO1 (stereo unspecified)", "Label value": "inactive"}
{"Compound": "CC(=O)[C@H]1CC[C@H]2[C@@H]3CC[C@H]4C[C@H](O)CC[C@]4(C)[C@H]3CC[C@]12C", "Label value": "inactive"}
{"Compound": "CC(Cc1ccc(O)cc1)NCC(O)c1cc(O)cc(O)c1 (stereo unspecified)", "Label value": "inactive"}
{"Compound": "O=C1C=C2C(=CCOC2O)O1 (stereo unspecified)", "Label value": "active"}
{"Compound": "c1ccc2c(c1)[nH]c1cnccc12", "Label value": "inactive"}
{"Compound": "C[C@@H]1CC[C@@]2(OC1)O[C@H]1[C@@H](O)[C@H]3[C@@H]4CC[C@H]5C[C@@H](O[C@@H]6O[C@H](CO)[C@H](O[C@@H]7O[C@H](CO)[C@@H](O)[C@H](O[C@@H]8OC[C@@H](O)[C@H](O)[C@H]8O)[C@H]7O[C@@H]7O[C@H](CO)[C@H](O)[C@H](O[C@@H]8O[C@H](CO)[C@@H](O)[C@H](O)[C@H]8O)[C@H]7O)[C@H](O)[C@H]6O)[C@H](O)C[C@]5(C)[C@H]4CC[C@]3(C)[C@H]1[C@@H]2C", "Label value": "inactive"}
{"Compound": "c1cncc(C2CCCCN2)c1 (stereo unspecified)", "Label value": "inactive"}
{"Compound": "C[C@@H]1O[C@@H](O[C@H]2C[C@@H](O)[C@]3(CO)[C@H]4[C@H](O)C[C@]5(C)[C@@H](C6=CC(=O)OC6)CC[C@]5(O)[C@@H]4CC[C@]3(O)C2)[C@H](O)[C@H](O)[C@H]1O", "Label value": "inactive"}
{"Compound": "COC(=O)C1=CO[C@@H](C)[C@@H]2CN3CC[C@@]4(C(=O)Nc5ccccc54)[C@H]3C[C@H]12", "Label value": "inactive"}
{"Compound": "CC1(C)C(=O)C=C[C@@]2(C)C1=C(O)C(=O)[C@]1(C)[C@@H]2CC[C@@]2(C)[C@H](c3ccoc3)C[C@H]3O[C@]321", "Label value": "inactive"}
